Reference for the values: PubChem BioAssay (NCI)

# experimental.details: NCI Yeast Anticancer Drug Screen. Data for the rad50 strain (AID 155);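 also: 0% = growth of vehicle-only cultures of the same strain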
# experimental.setup: S. cerevisiae rad50 strain growth inhibition; at 50.0 µM; stronger effect = higher value
This is part of a sample that, as a whole, favours compounds with a hit. Of some 79,000 tested, about 15% had one in any assay.
readout.label: growth inhibition (%)

[
  {
    "smiles.entry": "O=C1CCN2C(=O)CCN12",
    "reading.unit": "%",
    "data.value": 1.1
  },
  {
    "smiles.entry": "c1ccc(Nc2ccc3ccccc3n2)cc1",
    "reading.unit": "%",
    "data.value": 40.6
  },
  {
    "smiles.entry": "Cc1oc2nc(N(C)C)n3nnnc3c2c1C",
    "reading.unit": "%",
    "data.value": -0.35
  }
]

###

# experimental.details: NCI Yeast Anticancer Drug Screen. Data for the mec2-1 strain (AID 157)
# experimental.setup: S. cerevisiae mec2-1 strain, at 50.0 µM, stronger effect = higher value
Compounds without any hit were thinned out: in the full panel of roughly 79,000, 15% have a hit.
Items are presented alongside their recorded growth inhibition.

[
  {
    "compound": "CC(=O)Nc1ncn(C)c1S(N)(=O)=O",
    "growth inhibition, %": -19.1
  },
  {
    "compound": "Cc1ccc(S(=O)(=O)NC(Cc2ccccc2)C(=O)NCc2cccnc2)cc1 (stereo not given)",
    "growth inhibition, %": -8.4
  },
  {
    "compound": "Cc1ccc(N=C2C(=Nc3ccc(C)cc3)N(c3ccc(C)cc3)C(=S)N2C(=O)c2ccccc2)cc1",
    "growth inhibition, %": -27.1
  },
  {
    "compound": "CCOC(=O)C(=CNc1cccc(N)n1)C(=O)OCC",
    "growth inhibition, %": -17.9
  },
  {
    "compound": "COc1ccc(N2C(=O)C(=O)C3(CCCCC3)C2=O)c2ccccc12",
    "growth inhibition, %": -25.7
  },
  {
    "compound": "CCCC(=O)N[C@H]1C[C@H]2CC[C@@]1(C)C2(C)C",
    "growth inhibition, %": -27.4
  },
  {
    "compound": "Cc1nnc(-c2ccccc2)s1",
    "growth inhibition, %": 12.3
  },
  {
    "compound": "CCOC(=O)CSc1ncnc2nc[nH]c12",
    "growth inhibition, %": -9.35
  },
  {
    "compound": "Cn1cnc2c(Oc3ccc(Cl)cc3)ncnc21",
    "growth inhibition, %": -14.5
  },
  {
    "compound": "CSc1nc(Br)nc2c1ncn2C1CC(Oc2ccc(C)cc2)C(COc2ccc(C)cc2)O1 (stereo not given)",
    "growth inhibition, %": 4.3
  },
  {
    "compound": "O=C1COC(=O)/C1=C/c1ccccc1",
    "growth inhibition, %": -7.85
  },
  {
    "compound": "CCCCNC(=O)CC(C)C(=O)O (stereo not given)",
    "growth inhibition, %": -1.35
  },
  {
    "compound": "C=C(C)C1CCC2(C=O)CCC3(C)C(CCC4C5(C)CCC(O)C(C)(C)C5CCC43C)C12 (stereo not given)",
    "growth inhibition, %": 37
  },
  {
    "compound": "Nc1ccc(C(=O)CC(N)C(=O)O)cc1O (stereo not given)",
    "growth inhibition, %": 21.4
  },
  {
    "compound": "COc1cc(/C=C2\\N=C(C)OC2=O)ccc1O",
    "growth inhibition, %": -6.5
  },
  {
    "compound": "COc1c(OC)c(C(C)C)c2c(c1C(=O)O)C(=O)OC2=O",
    "growth inhibition, %": 10.9
  },
  {
    "compound": "O=C(O)c1cc(O)c(C(=O)O)cc1O",
    "growth inhibition, %": -9.15
  },
  {
    "compound": "NC(N)=NC1CCc2ccccc2C1 (stereo not given)",
    "growth inhibition, %": -2.85
  },
  {
    "compound": "CCOC(=O)CCC(C(=O)OCC)C(C)C(=O)OCC (stereo not given)",
    "growth inhibition, %": -19.1
  },
  {
    "compound": "Fc1c(F)c(F)c(Nc2c(F)c(F)c3c(F)c(F)c(F)c(F)c3c2F)c(F)c1F",
    "growth inhibition, %": 49.7
  },
  {
    "compound": "CC(=O)ON=C(C1CC1)C1CC1",
    "growth inhibition, %": 3.5
  },
  {
    "compound": "c1ccc(CNc2ncncc2-c2ccccc2)cc1",
    "growth inhibition, %": 3.85
  },
  {
    "compound": "S=C1NCC(c2ccccc2)CN1",
    "growth inhibition, %": 1.65
  },
  {
    "compound": "CCc1ccccc1NC(=O)C1=C(C)NC(C)=C(C(=O)Nc2ccccc2CC)C1c1ccc(NC(C)=O)cc1",
    "growth inhibition, %": 19.8
  },
  {
    "compound": "CC(=O)OCC1OC(SC2=NC(=O)CS2)C(OC(C)=O)C(OC(C)=O)C1OC(C)=O (stereo not given)",
    "growth inhibition, %": -1.8
  },
  {
    "compound": "[O-][n+]1c2ccc(Cl)cc2nc2ccc(Cl)cc21",
    "growth inhibition, %": -10.9
  },
  {
    "compound": "C/C=C\\COC(=O)CC(C)=O",
    "growth inhibition, %": -23.4
  },
  {
    "compound": "CC(=O)[C@H]1[C@H](C)C[C@H]2[C@@H]3CCC4=CC(=O)CC[C@]4(C)[C@@]3(F)C(=O)C[C@@]21C",
    "growth inhibition, %": 1.2
  },
  {
    "compound": "O=C1C(Cl)C(c2ccc(O)cc2)N1n1cnc2ccccc2c1=O (stereo not given)",
    "growth inhibition, %": 37.9
  },
  {
    "compound": "C=CCNC(=S)Nc1cccc(O)c1",
    "growth inhibition, %": -11.6
  },
  {
    "compound": "Cc1ccc(NC(=O)c2cc(S(=O)(=O)n3cc[nH]c3=O)c(S)cc2Cl)cc1",
    "growth inhibition, %": -5.85
  },
  {
    "compound": "CCC1(C)CCC(C)c2ccccc21 (stereo not given)",
    "growth inhibition, %": -5.4
  },
  {
    "compound": "c1c2c(cc3c1OCN(C1CC1)C3)OCN(C1CC1)C2",
    "growth inhibition, %": 5.6
  },
  {
    "compound": "O=S1c2ccccc2N=C(c2ccc3ccccc3c2)CC1C1=CC=CCC1 (stereo not given)",
    "growth inhibition, %": -33.1
  },
  {
    "compound": "CCCC(SCCO)C(CC)CSCCO (stereo not given)",
    "growth inhibition, %": -9.55
  },
  {
    "compound": "CC(=O)c1c(C)[nH]c(-c2ccccc2)c1NS(=O)(=O)c1ccc(N)cc1",
    "growth inhibition, %": -3.45
  },
  {
    "compound": "O=C(Cc1ccccc1)N/N=C(/c1nc2ccc([N+](=O)[O-])cc2[nH]c1=O)C(O)c1ccco1 (stereo not given)",
    "growth inhibition, %": -9.75
  },
  {
    "compound": "CC(=O)NC1CC(C)(C)NC(C)(C)C1",
    "growth inhibition, %": -30.2
  },
  {
    "compound": "CC(C)/C=N/N=C/C(C)C",
    "growth inhibition, %": 9.7
  },
  {
    "compound": "N#Cc1cc(F)c(N)c(F)c1",
    "growth inhibition, %": 7.95
  }
]

###

# growth inhibition values compiled below
# experimental.details: NCI Yeast Anticancer Drug Screen. Data for the mec2-1 strain (AID 157)
# experimental.setup: S. cerevisiae mec2-1 strain, at 50.0 µM, stronger effect = higher value
Compounds without any hit were thinned out: in the full panel of roughly 79,000, 15% have a hit.
readout.label: growth inhibition (%)

[
  {
    "compound": "CCCCCc1c(C)[nH]n(C(N)=NCCSCc2nc[nH]c2C)c1=O",
    "readout.label": "growth inhibition",
    "data.value": -0.8
  },
  {
    "compound": "Cc1cc(C)c(/C(O)=C/C(=S)N2CCOCC2)c(C)c1",
    "readout.label": "growth inhibition",
    "data.value": 14.1
  },
  {
    "compound": "CCC(=O)C(C)C(=O)CCC(=O)Nc1cc(Cl)ccc1Cl (stereo unspecified)",
    "readout.label": "growth inhibition",
    "data.value": 18.5
  },
  {
    "compound": "CCCn1cc2c(=O)[nH]c(SC)nc2n1",
    "readout.label": "growth inhibition",
    "data.value": -20.8
  },
  {
    "compound": "O=C(O)CN(CC(=O)O)Cc1ccccc1",
    "readout.label": "growth inhibition",
    "data.value": 8.7
  },
  {
    "compound": "CN1C(=O)C2CC(=O)N(Cc3ccccc3)C(=O)C2C1=O (stereo unspecified)",
    "readout.label": "growth inhibition",
    "data.value": -16.1
  },
  {
    "compound": "O=C(Cc1ccccc1)NN(Cc1ccccc1)Cc1ccccc1",
    "readout.label": "growth inhibition",
    "data.value": -0.85
  },
  {
    "compound": "O=C(C[n+]1ccccc1)N/N=C(\\Cc1nc2ccc([N+](=O)[O-])cc2[nH]c1=O)C(=O)Nc1cc(Cl)c(Cl)cc1Cl",
    "readout.label": "growth inhibition",
    "data.value": 10.1
  },
  {
    "compound": "O=Cc1ccc(-c2ccc(S(=O)(=O)O)cc2)o1",
    "readout.label": "growth inhibition",
    "data.value": 6.85
  },
  {
    "compound": "O=[N+]([O-])c1ccc(-c2ccc([N+](=O)[O-])cc2)cc1",
    "readout.label": "growth inhibition",
    "data.value": -0.95
  },
  {
    "compound": "CC(=O)SC1CC(=O)OC1=O (stereo unspecified)",
    "readout.label": "growth inhibition",
    "data.value": -15.3
  }
]
